# merged literature set: Ki with the protein given by its sequence
Sequence of the target: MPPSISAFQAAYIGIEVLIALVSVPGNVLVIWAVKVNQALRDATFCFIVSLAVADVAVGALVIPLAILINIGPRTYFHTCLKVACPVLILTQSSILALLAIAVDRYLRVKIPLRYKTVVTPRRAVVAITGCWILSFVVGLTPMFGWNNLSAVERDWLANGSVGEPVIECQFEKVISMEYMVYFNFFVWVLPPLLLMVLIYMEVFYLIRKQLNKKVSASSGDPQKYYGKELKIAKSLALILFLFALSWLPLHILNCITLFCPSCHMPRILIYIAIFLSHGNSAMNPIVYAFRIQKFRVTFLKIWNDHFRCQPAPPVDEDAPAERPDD
value_kind: Ki (nM)

>>> print(df.to_string())
                                   compound  value_modifier  obs_value
0  CC(O)Cn1cnc2c1c(=O)n(C)c(=O)n2C (stereo not given)               >      10000
1       Cn1c(=O)c2[nH]c(C3CCCC3)nc2n(C)c1=O               =        1.4
2      N=C(N)NC(=O)c1nc(Cl)c(N2CCCCCC2)nc1N               =        410
3  Cn1c(=O)c2nc(-c3ccc(O)cc3)[nH]c2n(C)c1=O               =        3.4
4                Cn1c(=O)c2c(ncn2C)n(C)c1=O               >      10000
5       CC(=O)CCCCn1c(=O)c2c(ncn2C)n(C)c1=O               >      10000
6      Cn1c(=O)c2c(ncn2C[C@H](O)CO)n(C)c1=O               >      10000
7  CC(O)Cn1c(=O)c2c(ncn2C)n(C)c1=O (stereo not given)               >      10000
8        CCN(CC)CCn1cnc2c1c(=O)n(C)c(=O)n2C               >      10000
9  CCCn1c(=O)c2nc(-c3ccc(O)cc3)[nH]c2n(CCC)c1=O               =        3.2
